Value source: ChEMBL document CHEMBL1127734

molecular target: Adenosine receptors; A1 & A3 (Rattus norvegicus) (UniProt P25099+P28647); assay: Selectivity ratio (Ki's)for A1 and A3 receptors in rat brain; type: tissue-based
readout: Selectivity ratio

// known answers, use as guide
CCCCn1c(=O)c2c(ncn2C2O[C@H](CO)[C@@H](O)[C@H]2O)n(CCCC)c1=O (stereo not given in full); 0.69
CCCCCCn1c(=O)c2c(ncn2C2O[C@H](C(=O)NC)[C@@H](O)[C@H]2O)n(CCCCCC)c1=O (stereo not given in full); 3

A = CCCCCn1c(=O)c2c(ncn2C2O[C@H](C(=O)NC)[C@@H](O)[C@H]2O)n(CCCCC)c1=O (stereo not given in full)
B = CCCn1c(=O)c2c(ncn2C2O[C@H](CO)[C@@H](O)[C@H]2O)n(CCC)c1=O (stereo not given in full)
Prompt line: Which record shows the lower Selectivity ratio: the first, A , or the second, B ? Field: selected label. Fill in the label of the entry you choose.
Response line: B
(B: 0.2, A: 4.3)
